# testSystem: T1, recombinant human EGFR extracellular domain with 6xHis (human, UniProt P00533 25-645)
# T1 construct: In-house produced; also called 6xHis EGFR ECD; soluble human EGFR ECD; not shown: 6xHis tag
# method: SPR competition, EGFR ECD first saturated with mix N=6 1261+1347+992+1024+1030+1361
assayEndpoint: Rumax competition cycle (Ru)
Express your answer in Ru, writing the number without its unit.

Some entries whose results are on file:
| binder | Rumax competition cycle / Ru |
| --- | --- |
| antibody 1030 (antibody, human IgG1, kappa, V domains shown, Chimeric IgG1 kappa) VH: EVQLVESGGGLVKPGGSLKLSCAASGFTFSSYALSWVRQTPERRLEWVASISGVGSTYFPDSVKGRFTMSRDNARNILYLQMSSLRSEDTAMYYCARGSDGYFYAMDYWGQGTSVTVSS VL: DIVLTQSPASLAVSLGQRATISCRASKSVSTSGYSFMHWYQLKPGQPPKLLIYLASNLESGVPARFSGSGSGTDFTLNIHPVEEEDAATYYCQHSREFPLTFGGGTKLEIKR | 12 |
| antibody 1261 (antibody, human IgG1, kappa, V domains shown, Chimeric IgG1 kappa) VH: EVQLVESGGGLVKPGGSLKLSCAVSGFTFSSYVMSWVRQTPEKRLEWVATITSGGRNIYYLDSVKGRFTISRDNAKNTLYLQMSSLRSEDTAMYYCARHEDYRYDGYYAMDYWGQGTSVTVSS VL: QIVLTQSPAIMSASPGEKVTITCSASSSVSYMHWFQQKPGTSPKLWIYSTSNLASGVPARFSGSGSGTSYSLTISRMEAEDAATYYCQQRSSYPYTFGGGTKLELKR | 7 |
| antibody 1347 (antibody, human IgG1, kappa, V domains shown, Chimeric IgG1 kappa) VH: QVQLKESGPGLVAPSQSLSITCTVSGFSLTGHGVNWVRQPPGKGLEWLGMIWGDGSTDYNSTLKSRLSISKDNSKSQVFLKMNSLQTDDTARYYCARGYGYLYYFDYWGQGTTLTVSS VL: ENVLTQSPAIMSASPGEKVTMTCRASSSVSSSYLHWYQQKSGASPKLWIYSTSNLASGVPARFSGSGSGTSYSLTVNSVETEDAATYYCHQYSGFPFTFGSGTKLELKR | 19 |
| antibody 992 (antibody, human IgG1, kappa, V domains shown, Chimeric mouse/human IgG1 kappa; the VL entry includes the human kappa constant region) VH: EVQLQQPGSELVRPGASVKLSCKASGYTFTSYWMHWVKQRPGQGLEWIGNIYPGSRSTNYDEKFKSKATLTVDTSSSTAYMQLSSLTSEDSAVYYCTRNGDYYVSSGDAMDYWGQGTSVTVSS VL: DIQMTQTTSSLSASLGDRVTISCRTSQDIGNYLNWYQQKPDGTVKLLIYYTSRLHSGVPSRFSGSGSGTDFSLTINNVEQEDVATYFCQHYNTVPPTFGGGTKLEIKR | -14 |

API: the following record is the query input.
// returns reported Rumax competition cycle for input antibody 1024 (antibody, human IgG1, kappa, V domains shown, Chimeric IgG1 kappa) VH: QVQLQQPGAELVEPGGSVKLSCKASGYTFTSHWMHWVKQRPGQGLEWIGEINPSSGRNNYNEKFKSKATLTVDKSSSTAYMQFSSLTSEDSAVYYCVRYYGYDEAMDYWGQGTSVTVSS VL: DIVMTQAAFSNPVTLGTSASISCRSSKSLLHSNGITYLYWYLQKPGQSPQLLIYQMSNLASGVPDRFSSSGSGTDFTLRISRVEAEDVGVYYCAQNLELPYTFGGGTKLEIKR
-14
